# Target under test: CFTR-mediated chloride transport (Homo sapiens, UniProt P13569)
# Sequence (P13569 whole entry, looked up): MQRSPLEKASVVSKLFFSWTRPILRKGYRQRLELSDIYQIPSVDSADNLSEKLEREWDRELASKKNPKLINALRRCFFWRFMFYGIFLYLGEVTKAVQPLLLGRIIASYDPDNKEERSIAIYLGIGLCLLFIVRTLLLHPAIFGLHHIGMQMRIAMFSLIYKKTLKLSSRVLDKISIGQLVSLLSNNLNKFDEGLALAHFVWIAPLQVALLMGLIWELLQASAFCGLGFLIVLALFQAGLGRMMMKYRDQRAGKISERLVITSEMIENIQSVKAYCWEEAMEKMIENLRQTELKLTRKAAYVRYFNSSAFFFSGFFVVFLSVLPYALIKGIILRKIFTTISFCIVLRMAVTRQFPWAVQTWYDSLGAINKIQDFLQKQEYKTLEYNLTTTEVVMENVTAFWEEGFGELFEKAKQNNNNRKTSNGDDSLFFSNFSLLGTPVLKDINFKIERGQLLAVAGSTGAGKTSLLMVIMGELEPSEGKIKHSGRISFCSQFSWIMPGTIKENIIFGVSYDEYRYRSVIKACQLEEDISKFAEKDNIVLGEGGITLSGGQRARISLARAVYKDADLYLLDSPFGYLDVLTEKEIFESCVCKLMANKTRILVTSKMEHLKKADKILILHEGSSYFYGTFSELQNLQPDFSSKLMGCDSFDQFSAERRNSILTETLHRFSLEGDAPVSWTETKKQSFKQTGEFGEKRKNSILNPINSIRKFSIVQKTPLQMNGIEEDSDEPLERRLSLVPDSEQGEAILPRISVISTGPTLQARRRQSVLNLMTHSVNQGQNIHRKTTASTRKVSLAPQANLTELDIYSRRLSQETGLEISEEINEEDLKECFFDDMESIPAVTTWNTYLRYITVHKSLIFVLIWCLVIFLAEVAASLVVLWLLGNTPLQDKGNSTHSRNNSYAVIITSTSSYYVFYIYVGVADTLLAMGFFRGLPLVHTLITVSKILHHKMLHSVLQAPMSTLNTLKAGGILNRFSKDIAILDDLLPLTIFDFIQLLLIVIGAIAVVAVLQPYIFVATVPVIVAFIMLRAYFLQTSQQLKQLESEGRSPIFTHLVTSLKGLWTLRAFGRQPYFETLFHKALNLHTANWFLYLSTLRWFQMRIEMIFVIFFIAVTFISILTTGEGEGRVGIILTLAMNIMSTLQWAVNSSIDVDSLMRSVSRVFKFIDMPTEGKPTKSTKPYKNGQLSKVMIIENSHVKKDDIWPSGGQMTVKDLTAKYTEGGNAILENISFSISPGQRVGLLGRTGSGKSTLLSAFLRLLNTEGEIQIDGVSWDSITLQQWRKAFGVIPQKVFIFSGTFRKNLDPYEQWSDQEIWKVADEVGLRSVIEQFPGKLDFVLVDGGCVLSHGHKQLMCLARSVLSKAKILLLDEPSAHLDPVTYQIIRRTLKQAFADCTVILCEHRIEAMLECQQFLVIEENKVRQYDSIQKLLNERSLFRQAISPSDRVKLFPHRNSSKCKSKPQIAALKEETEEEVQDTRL
# Assay type: cell-based
# Study conditions: enteroid cells incubated with test compound 18-24 hours; acute 10 μM forskolin and 300 nM Compound III; % of chloride transport with 3 μM Compound A, 3 μM Compound II and 300 nM acute Compound III triple combination control
Experimental endpoint: Max. Activity

Query: Give the measured Max. Activity for CC1(C)C[C@H]2CCCNc3cccc(n3)S(=O)(=O)NC(=O)c3ccc(-n4ccc(OCCCC5(C(F)(F)F)CC5)n4)nc3N1C2
Result: ++ (++ is 30-60%)

Query: Give the measured Max. Activity for CC1(C)C[C@H]2CCNc3cccc(n3)S(=O)(=O)NC(=O)c3ccc(-n4ccc(OCC5(C(F)(F)F)CC5)n4)nc3N1C2 (single isomer, unassigned) [Compound 5]
Result: +++ (+++ is >60%)

Query: Give the measured Max. Activity for CC1(C)C[C@H]2CCCCc3cccc(c3)S(=O)(=O)NC(=O)c3ccc(-n4ccc(OCCC5(C(F)(F)F)CC5)n4)nc3N1C2 (single isomer, unassigned) [Compound 57]
Result: ++ (++ is 30-60%)

Query: Give the measured Max. Activity for CC1(C)C[C@@H]2CCCNc3cccc(n3)S(=O)(=O)NC(=O)c3ccc(-n4ccc(OC[C@@H](O)CC5(C(F)(F)F)CC5)n4)nc3N1C2 (single isomer, unassigned) [Compound 284]
Result: +++ (+++ is >60%)
